Hey, just so you know, these numbers are from paper PMC6479099.

assay: In vitro cytotoxicity, murine macrophage cells; details: mouse, RAW 264.7 murine macrophage cells
QUANTITY_NAME: GI50

                            chemical_string  reported
0  CC(C)(C)c1ccc(/C=N/NC(=N)N/N=C/c2ccc(C(C)(C)C)cc2)cc1.Cl    7.3 µM
1  C/C(=N\NC(=N)N/N=C(\C)c1ccc(Cl)cc1)c1ccc(Cl)cc1.Cl      4 µM
